Cited source for all entries: patent US20130230533A1

Molecular target: T1, Monomeric human CD48-mmH (human)
T1 construct: also called soluble CD48 expressed with a myc-myc-hexa-histidine C-terminal tag [mmH]
T1 chain: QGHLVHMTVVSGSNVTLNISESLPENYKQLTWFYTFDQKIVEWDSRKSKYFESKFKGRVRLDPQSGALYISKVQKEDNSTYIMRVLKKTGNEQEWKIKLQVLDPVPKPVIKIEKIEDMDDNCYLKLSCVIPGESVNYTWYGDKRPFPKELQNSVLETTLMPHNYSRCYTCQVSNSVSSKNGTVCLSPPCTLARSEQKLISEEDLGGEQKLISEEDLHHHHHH
Assay: SPR (Biacore T100), 25 C, antibody captured by anti-Fc, monomeric CD48-mmH in solution
T½ values by entry
READOUT_NAME: T½ (min)

binder="H2M1713N (antibody, mouse IgG2, V domains shown, Human variable domains, mouse IgG2 Fc (prefix H2M)) VH: QVQLVQSGAEVKKPGASVKVSCKASGHTFTNYYIHWVRQAPGQGLEWMGITNPNDGNTRYAQKFQGRISMTWDTSTSTVFMELSSLKSEDTAVYYCAGLRYWFFDLWGRGTPVTVSS VL: DIQMTQSPSSVSASVGDRVTITCRASQDISSWLAWYQQKPGKAPNLLIFAASSLQSGVPSRFSGSGSGTDFTLTISSLQPEDFGTYYCQQTDNFPRTFGQGTKVEIN" readout_name=T½ units=min readout_value=53
binder="H2M1709N (antibody, mouse IgG2, V domains shown, Human variable domains, mouse IgG2 Fc (prefix H2M)) VH: QVQLVQSGAEVKKPGASVKVSCKVSGYTLTELSIHWVRQAPGKGLEWMGGFDPEDGETIYAQKFQGRVNMTEDTSTDTAYMELSSLRSDDTTVYFCASLLPYFDYWGQGTLVTVSS VL: EIVLTQSPGTLSLSPGERATLSCRASQSVSSSYLAWYQQKPGQAPRLLIYGASSRATGIPDRFSGSGSGTDFTLSISRLEPEDFAVYFCQQYGSSMYTFGQGTKLEIK" readout_name=T½ units=min readout_value=2
binder="H2M1707N (antibody, mouse IgG2, V domains shown) VH: EGQLLESGGGLAQPGGSLRLSCAASGITFGRYAMSWVRQAPGKGLEWVSLISGSGGSTYHADSVKGRFTISRDNSKNTLYLQMNSLRAEDTAVYYCAIYNNYNWFDPWGQGTLVTVSS VL: EIVLTQSPGTLSLSPGERATLSCRASQSVSSNYLAWYQQKPGQAPRLLIYDASSRATDIPDRFSGSGSGTDFTLTISRLEPEDFAVYYCQQYGSSPRTFGQGTKVEIK" readout_name=T½ units=min readout_value=18
